assay: qHTS assay to identify small molecule antagonists of the constitutive androstane receptor (CAR) signaling pathway - cell viability counter screen (AID 1224837); details: HepG2-CYP2B6-hCAR viability, CellTiter-Fluor, 23 h, co-treated with 50 nM CITCO; series mostly up to 92.4 µM; also: nearly all actives have a fitted effect of over 45% in size
Records with an inconclusive call do not appear. Active and inactive are the calls of the source. Calls follow the shape of the dose curve; as a rule, active = well fitted cell-killing curve with a large enough effect in the repeat runs; inconclusive = weak or mixed curves, or effect the other way; inactive = flat fitted curve, though single readings scatter.
// allowed return values: true = active, false = inactive

Below, 5 compounds whose answers are already recorded.
{"Compound": "CCC(C)C(=O)OC (stereo not given)", "Discrete Label": "false"}
{"Compound": "CCN=C1C=CC(=C(c2ccc(N(CC)CC)cc2)c2ccc(N(CC)CC)cc2)c2ccccc21", "Discrete Label": "true"}
{"Compound": "COc1ccc(-n2nc(CCC(=O)N(C)O)cc2-c2ccc(Cl)cc2)cc1", "Discrete Label": "false"}
{"Compound": "OCCCCl", "Discrete Label": "false"}
{"Compound": "CC(COC(=O)c1ccccc1)OC(=O)c1ccccc1 (stereo not given)", "Discrete Label": "false"}

Exercise: In this assay, the call recorded for `C/C=C/c1ccc(OC)c(OC)c1` was what?
Solution: false

Exercise: Test call, this compound: `CC(=O)C=O`
Solution: false

Exercise: Query: recorded result category for `CC(=O)Nc1ccc(O)cc1` in this test
Solution: false

Exercise: Which result was noted for this compound in the test: `CO[Si](CCCNCCNCCN)(OC)OC`
Solution: false

Exercise: Could you kindly confirm the outcome this assay logged for `O=CC1CC1` ?
Solution: false

Exercise: Hey, what did the test say about `NC(=O)c1ccccc1N` ?
Solution: false

Exercise: Per the records of this test, what outcome belongs to `CC(C)N=C(N)/N=C(\N)Nc1ccc(Cl)cc1` ?
Solution: false

Exercise: Dear colleague, could you share the recorded outcome for `O=C(O)CCCCCCC(=O)O` when you have a moment?
Solution: false

----------
molecular target: Estrogen receptor (Homo sapiens) (UniProt P03372); test: qHTS assay to identify small molecule antagonists of the estrogen receptor alpha (ER-alpha) signaling pathway using the BG1 cell line in the presence of 0.1 nM 17-beta-estradiol (AID 1259244); conditions: VM7Luc4E2 (BG1) ERE-luciferase, antagonist mode, 0.1 nM E2, 22 h; series mostly up to 92.4 µM; also: nearly all actives have a fitted effect of over 50% in size
Sequence (P03372 whole entry, looked up): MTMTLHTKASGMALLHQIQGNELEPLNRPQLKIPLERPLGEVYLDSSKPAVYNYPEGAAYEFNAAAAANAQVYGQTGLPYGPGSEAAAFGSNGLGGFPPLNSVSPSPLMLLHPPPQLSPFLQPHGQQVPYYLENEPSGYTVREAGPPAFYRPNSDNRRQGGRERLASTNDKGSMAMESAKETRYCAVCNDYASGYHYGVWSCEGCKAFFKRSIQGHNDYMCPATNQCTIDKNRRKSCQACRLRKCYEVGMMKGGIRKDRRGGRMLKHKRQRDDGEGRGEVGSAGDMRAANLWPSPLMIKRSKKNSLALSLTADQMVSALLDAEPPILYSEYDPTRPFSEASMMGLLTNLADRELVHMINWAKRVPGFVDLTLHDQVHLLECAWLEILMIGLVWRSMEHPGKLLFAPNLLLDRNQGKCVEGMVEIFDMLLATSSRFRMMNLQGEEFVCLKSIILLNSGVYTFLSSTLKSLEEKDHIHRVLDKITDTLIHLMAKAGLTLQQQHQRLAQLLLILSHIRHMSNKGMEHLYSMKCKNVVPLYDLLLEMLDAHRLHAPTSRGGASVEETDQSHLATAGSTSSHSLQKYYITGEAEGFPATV
Results filed as inconclusive are left out. Active and inactive are the calls of the source. Calls come from the whole dose curve; as a rule, active = well fitted inhibition curve with a large enough effect in the repeat runs; inconclusive = weak or mixed curves; inactive = no such curve, though single readings can be large or run the other way.
Write down one outcome, taken from active, inactive

{"Molecule": "CCOC(/C=C(\\C)CCC=C(C)C)OCC", "Subject Of Test": "Estrogen receptor (Homo sapiens) (UniProt P03372)", "Discrete Label": "inactive"}
{"Molecule": "Cc1ccc2ccc3cccc4ccc1c2c34", "Subject Of Test": "Estrogen receptor (Homo sapiens) (UniProt P03372)", "Discrete Label": "inactive"}
{"Molecule": "O=Cc1ccc(F)cc1", "Subject Of Test": "Estrogen receptor (Homo sapiens) (UniProt P03372)", "Discrete Label": "inactive"}
{"Molecule": "CC1=CP(=O)(c2ccccc2)CC1 (stereo not drawn)", "Subject Of Test": "Estrogen receptor (Homo sapiens) (UniProt P03372)", "Discrete Label": "inactive"}
{"Molecule": "OCCC(O)CO (stereo not drawn)", "Subject Of Test": "Estrogen receptor (Homo sapiens) (UniProt P03372)", "Discrete Label": "inactive"}
{"Molecule": "CCCCCCCC(OC)OC", "Subject Of Test": "Estrogen receptor (Homo sapiens) (UniProt P03372)", "Discrete Label": "inactive"}

Exercise: Kindly provide the recorded test outcome for the following molecule: `COc1cc(C(=O)NS(=O)(=O)c2ccccc2C)ccc1Cc1cn(C)c2ccc(NC(=O)OC3CCCC3)cc12`
Solution: inactive

Exercise: For this molecule, state the assay outcome: `O=C1OC(=O)c2ccc3c4c(ccc1c24)C(=O)OC3=O`
Solution: inactive

Exercise: Check the results log: what was the call for C1CC(COCC2CO2)CCC1COCC1CO1 (stereo not drawn) ?
Solution: inactive

Exercise: Record request — test call for `OCCCCl`
Solution: inactive

Exercise: Any idea what this test logged for `CCCCN(C)C` ?
Solution: inactive

Exercise: Which outcome was entered for the molecule `CC(C)(C)C1=CC(=O)C=C(C(C)(C)C)C1=O` in this test?
Solution: inactive

Exercise: Dear all, I need the recorded test outcome for `NCCCCCCNCCCCCCN` , thank you.
Solution: inactive

Exercise: Which outcome was entered for the molecule `CCCCCCCCCCCCCc1ccccc1` in this test?
Solution: inactive

Exercise: Dear all, I need the recorded test outcome for `CCCC(=O)OCC(COC(=O)CCC)OC(=O)CCC` , thank you.
Solution: inactive

Exercise: For this molecule, state the assay outcome: c1cc(OCC2CO2)cc(OCC2CO2)c1 (stereo not drawn)
Solution: active

Exercise: Recorded test call requested for `CC(C)N=C(N)/N=C(\N)Nc1ccc(Cl)cc1`
Solution: inactive

Exercise: Which result was noted for this molecule in the test: `c1ccc(Sc2ccccc2)cc1`
Solution: inactive

Exercise: Test call for this molecule, please: `O=C(c1ccccc1)c1cc(Cl)ccc1O`
Solution: inactive

Exercise: Identify the outcome logged in this assay for the molecule shown: `Cc1oc(-c2ccccc2)nc1CCOc1ccc(C[C@H](Nc2ccccc2C(=O)c2ccccc2)C(=O)O)cc1`
Solution: inactive

Exercise: For this molecule, state the assay outcome: `O[C@@H](c1cc(C(F)(F)F)nc2c(C(F)(F)F)cccc12)[C@H]1CCCCN1`
Solution: inactive

Exercise: So what was the verdict on `CN(Cc1cc(Br)cc(Br)c1N)C1CCCCC1` in this test?
Solution: inactive

Exercise: Dear all, I need the recorded test outcome for `CC(=O)Oc1ccc(C2(c3ccc(OC(C)=O)cc3)C(=O)Nc3ccccc32)cc1` , thank you.
Solution: active
